assay system: Muscarinic acetylcholine receptor M1 (Homo sapiens)
Sequence (P11229 whole entry): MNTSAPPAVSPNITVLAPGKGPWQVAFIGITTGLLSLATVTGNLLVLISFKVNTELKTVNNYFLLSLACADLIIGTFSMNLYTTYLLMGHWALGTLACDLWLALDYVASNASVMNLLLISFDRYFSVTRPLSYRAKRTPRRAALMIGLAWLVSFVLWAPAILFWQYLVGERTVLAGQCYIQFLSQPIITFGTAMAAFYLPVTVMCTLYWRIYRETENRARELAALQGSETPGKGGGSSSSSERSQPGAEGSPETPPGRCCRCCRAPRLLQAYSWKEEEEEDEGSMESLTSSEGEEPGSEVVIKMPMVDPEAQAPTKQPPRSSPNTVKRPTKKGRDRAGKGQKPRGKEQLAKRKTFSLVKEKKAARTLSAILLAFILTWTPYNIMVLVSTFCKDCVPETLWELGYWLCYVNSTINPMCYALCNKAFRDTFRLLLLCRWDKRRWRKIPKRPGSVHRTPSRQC
assay explanation: Compound was evaluated for its ability to displace [3H]N-methylscopolamine ([3H]NMS) binding to cloned CHO cell lines expressing Muscarinic acetylcholine receptor M1
Format: cell-based
pIC50: −log10 of the molar value.
result type: pIC50

CSc1nsnc1C1=CCCN(C)C1 ... 5.74

---

assay system: Muscarinic acetylcholine receptor
assay explanation: In vitro Binding affinity was measured on Muscarinic acetylcholine receptor on rat brain membranes using [3H]oxotremorine-M
Design: species or system Membrane
result type: IC50 (nM)

CN1CCC2=C(C1)c1nsnc1SC2 ... 27.8
CSc1nsnc1C1=CCCNC1 ... 7.6
CSc1nsnc1C1=CCCN(C)C1 ... 4.5
C1Cc2sc3nsnc3c2CN1 ... 35.5
c1cc2nsnc2c2c1CCNC2 ... 44.5

---

Collected IC50 values appear next to each entry.
assay system: Muscarinic acetylcholine receptor M4 (Homo sapiens, UniProt P08173)
Sequence (P08173 whole entry): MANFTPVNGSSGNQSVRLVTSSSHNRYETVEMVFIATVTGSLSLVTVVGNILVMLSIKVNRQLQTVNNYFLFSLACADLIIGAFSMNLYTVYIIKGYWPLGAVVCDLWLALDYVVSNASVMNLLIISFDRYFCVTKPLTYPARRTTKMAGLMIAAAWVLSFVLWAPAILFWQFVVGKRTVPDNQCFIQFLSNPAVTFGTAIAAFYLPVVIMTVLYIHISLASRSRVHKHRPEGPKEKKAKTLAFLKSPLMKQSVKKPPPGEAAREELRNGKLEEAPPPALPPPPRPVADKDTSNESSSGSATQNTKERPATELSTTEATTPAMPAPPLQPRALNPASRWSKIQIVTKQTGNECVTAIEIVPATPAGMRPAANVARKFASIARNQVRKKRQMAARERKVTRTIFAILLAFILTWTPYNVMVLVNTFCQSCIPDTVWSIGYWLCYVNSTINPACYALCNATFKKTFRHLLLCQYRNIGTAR
assay explanation: Compound was evaluated for its ability to displace [3H]- N-methyl-scopolamine ([3H]-NMS) binding to cloned CHO cell lines expressing Muscarinic acetylcholine receptor M4
result type: IC50

c1cc2nsnc2c2c1CCNC2 ... 100 µM
CN1CCC2=C(C1)c1nsnc1SC2 ... 14.5 µM
CSc1nsnc1C1=C(C)CCN(C)C1 ... > 100 µM
CSc1nsnc1C1=CCCN(C)C1 ... 1.2 µM
O=C1CCCN1CC#CCN1CCCC1 ... 5 µM

---

assay system: Muscarinic acetylcholine receptor M3 (Homo sapiens, UniProt P20309)
Sequence (P20309 whole entry): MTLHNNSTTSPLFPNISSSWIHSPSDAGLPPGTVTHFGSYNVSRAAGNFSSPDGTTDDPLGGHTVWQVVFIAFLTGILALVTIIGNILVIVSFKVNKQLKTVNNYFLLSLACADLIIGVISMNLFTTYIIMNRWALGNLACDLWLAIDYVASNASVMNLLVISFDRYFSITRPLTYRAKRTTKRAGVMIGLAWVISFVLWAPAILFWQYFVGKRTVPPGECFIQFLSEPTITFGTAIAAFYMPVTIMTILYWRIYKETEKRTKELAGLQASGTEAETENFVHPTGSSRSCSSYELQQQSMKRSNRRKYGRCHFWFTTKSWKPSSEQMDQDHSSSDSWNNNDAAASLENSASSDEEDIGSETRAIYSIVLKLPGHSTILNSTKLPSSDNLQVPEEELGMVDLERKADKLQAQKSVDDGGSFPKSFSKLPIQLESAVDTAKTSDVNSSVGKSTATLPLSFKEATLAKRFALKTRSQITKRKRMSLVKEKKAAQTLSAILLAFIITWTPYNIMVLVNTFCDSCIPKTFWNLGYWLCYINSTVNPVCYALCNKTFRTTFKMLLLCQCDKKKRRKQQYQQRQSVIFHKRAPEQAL
assay explanation: Compound was evaluated for its ability to displace [3H]N-methylscopolamine ([3H]NMS) binding to cloned CHO cell lines expressing Muscarinic acetylcholine receptor M3
pIC50: −log10 of the molar value.
result type: pIC50

CN1CCC2=C(C1)c1nsnc1SC2 ... 5.01
CSc1nsnc1C1=CCCN(C)C1 ... 5.80
c1cc2nsnc2c2c1CCNC2 ... 4.00
O=C1CCCN1CC#CCN1CCCC1 [OXOTREMORINE] ... 4.77

---

Test system: Mus musculus
assay explanation: In vivo antinociceptive activity was measured using mouse grid shock (MGS) assay in mice upon subcutaneous administration
Assay type: functional
condition summary: sc
result type: ED50 (mg/kg)

COC(=O)C1=CCCN(C)C1 [ARECOLINE] ... 16
C1Cc2sc3nsnc3c2CN1 ... 4.6
O=C1CCCN1CC#CCN1CCCC1 [OXOTREMORINE] ... 0.038
CN1CCC2=C(C1)c1nsnc1SC2 ... 10.4
CSc1nsnc1C1=CCCN(C)C1 ... 4
CSc1nsnc1C1=CCCNC1 ... 1.8
c1cc2nsnc2c2c1CCNC2 ... 4.4
